tested system: δ opioid receptor (Cavia porcellus, UniProt A0A286XTF2)
Construct: determined in guinea pig brain cells; from tissue; host or cells: guinea pig brain
Sequence (A0A286XTF2 1-366): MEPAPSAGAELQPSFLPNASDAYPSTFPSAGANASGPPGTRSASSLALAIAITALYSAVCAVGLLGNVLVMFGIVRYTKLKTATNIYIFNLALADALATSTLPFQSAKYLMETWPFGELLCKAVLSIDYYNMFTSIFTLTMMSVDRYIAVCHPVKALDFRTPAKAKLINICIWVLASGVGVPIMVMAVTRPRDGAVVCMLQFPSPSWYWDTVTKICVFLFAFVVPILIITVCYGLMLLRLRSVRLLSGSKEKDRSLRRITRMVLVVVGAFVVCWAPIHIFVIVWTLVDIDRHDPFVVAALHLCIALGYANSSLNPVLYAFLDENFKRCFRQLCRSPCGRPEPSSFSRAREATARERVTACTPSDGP
test: biochemical
Format: binding, guinea pig
measurement context: read-out: [3H] Naltrindole (δ)
Please respond with reported pKi for every item in the list.
Give bare numbers, as −log10 of the molar value.

INSERT INTO measurements (molecule, tested_system, value_reported) VALUES
  ('CCC12CCN(CC3CC3)C(C(=O)c3ccc(C(N)=O)cc31)C2C (stereo not drawn) [Example 24]', 'δ opioid receptor (Cavia porcellus, UniProt A0A286XTF2)', 8.01);

Dear colleague, could you send me pKi for each of the items below? Thanks.
1. C[C@H]1[C@H]2Cc3ccc(O)cc3[C@]1(C)CCN2CC1CC1 [(−)-Cyclazocine, Cyclazocine, reference compound]
2. NC(=O)c1ccc2c3c1OC1C(=O)CCC4(O)C(C2)N(CC2CC2)CCC314 (stereo not drawn) [Example 32]
3. CCC12CCN(CC3CC3)C(C(=O)c3ccc(NC=O)cc31)C2C (stereo not drawn) [Example 40]

Output:
1. 9.24
2. 6.96
3. 7.28

Dear colleague, could you send me pKi for each of the items below? Thanks.
1. CCOC(=O)c1ccc2c3c1OC1C(=O)CCC4(O)C(C2)N(CC2CC2)CCC314 (stereo not drawn) [Example 33]
2. C[C@H]1[C@H]2Cc3ccc(O)cc3[C@]1(C)CCN2CC1CC1 [(+)-Cyclazocine, Cyclazocine, reference compound]

Output:
6.01
5.96
